# Dimerization pKdiss per record follows
target.desc: the molecule itself
assay.overview: analytical ultracentrifugation, equilibrium sedimentation, homodimer, 5 mM C14-betaine micelles
Ends that are not written are not given here.

Some solved entries appear below for comparison.
| protein | Dimerization pKdiss |
| --- | --- |
| AYVFILLSFILGTLLGFLVMFWA (designed binder, also: coumarin-labeled, site not given here) [Anti-αV(coumarin-labeled)] | 1.4 pKdiss (mole ratio units) |
| WVLVGVLGGLLLLTILVLAMWK [αIIb-TM polypeptide] | 1.8 pKdiss (mole ratio units) |
| KKAYVMLLPFFIGLLLGLIFGGAFWGPARHLKK (designed binder, also: FITC-labeled, site not given here) [Anti-αIIb (FITC-labeled)] | 2.3 pKdiss (mole ratio units) |

Prompt line: Please give the measured Dimerization pKdiss for this protein: PVWVIILAVLAGLLLLAVLVF [αV-TM]
Response line: 0.7 pKdiss (mole ratio units)
